Listed next: entries and their corresponding pIC50.
- Test system: HeLa
- Assay name: Cytotoxicity against human HeLa cells after 72 hrs by MTT assay
- Format: functional, cell-based
Kindly note that pIC50 refers to -log10 of the concentration in mol/L and answer with the value alone.

Sample records with pIC50:
Compound	pIC50
N=C(N)NCCSc1nc(-c2c[nH]c3cc(Br)ccc23)cnc1-c1c[nH]c2cc(Br)ccc12	5.38
O=C(c1nc(-c2c[nH]c3cc(Br)ccc23)c[nH]1)c1c[nH]c2cc(O)ccc12 [BROMOTOPSENTIN]	5.77

GET /values?readout=pIC50&item= O=C(c1nc(-c2c[nH]c3ccccc23)c[nH]1)c1c[nH]c2cc(O)ccc12 [TOPSENTIN]
5.36

pIC50 lookup needed for N=C(N)NCCSc1nc(-c2c[nH]c3ccccc23)cnc1-c1c[nH]c2cc(Br)ccc12 , thanks.
5.34
